# CHI Log D values compiled below
assay: CHI Log D procedure; format: physicochemical; conditions: pH 7.4
No unit in the answer, please; the number alone is enough.

Record excerpt, results attached:
CC(=O)N1CCC[C@]12CC=CCCCC1(CCCC=CCCCCCC[C@@](C)(C(=O)N[C@@H](Cc3ccccc3)C(=O)N[C@@H](Cc3csc4ccccc34)C(=O)N[C@@H](CCO)C(N)=O)NC(=O)[C@H](CCC(N)=O)NC(=O)[C@H](Cc3ccccc3)NC(=O)[C@H](C)NC(=O)[C@H](C)NC(=O)[C@H](CCC(=O)O)NC(=O)[C@H](CC(=O)O)NC1=O)NC(=O)[C@H](C)NC(=O)[C@H](CC(=O)O)NC2=O (stereo partly shown) [I-492]
2.052
CC(=O)N1CCC[C@]12CC=CCCCC1(CCCC=CCCCOC(=O)N3CC[C@@](C(=O)N[C@@H](Cc4ccsc4)C(=O)N[C@@H](Cc4csc5ccccc45)C(=O)N[C@@H](CCC(N)=O)C(N)=O)(C3)NC(=O)[C@H](CC(N)=O)NC(=O)[C@H](Cc3ccccc3)NC(=O)[C@H](C)NC(=O)[C@H](C)NC(=O)[C@H](CC(=O)O)NC(=O)[C@H](CC(=O)O)NC1=O)NC(=O)[C@H](CC(C)(C)C)NC(=O)[C@H](CC(=O)O)NC2=O (stereo partly shown) [I-686]
1.997
CCN(CC(=O)O)C[C@@H]1NC(=O)[C@H](CC(=O)O)NC(=O)C2(CCCC=CCCCCCC[C@@](C)(C(=O)N[C@@H](Cc3ccccc3)C(=O)N[C@@H](Cc3c[nH]c4ccccc34)C(=O)N[C@@H](CCC(N)=O)C(N)=O)NC(=O)[C@H](C(C)C)NC(=O)[C@H](Cc3ccccc3)NC(=O)[C@H](C)NC(=O)[C@H](C)NC1=O)CCCC=CC[C@]1(CCCN1C(C)=O)C(=O)N[C@@H](CC(=O)O)C(=O)N[C@@H](C)C(=O)N2 (stereo partly shown) [I-172]
2.173
CC(=O)N1CCC[C@]12CC=CCCCC1(CCCC=CCCCCCC[C@@](C)(C(=O)N[C@@H](Cc3ccccc3)C(=O)N[C@@H](Cc3csc4ccccc34)C(=O)N[C@@H](CCC(N)=O)C(N)=O)NC(=O)[C@H](CCC(N)=O)NC(=O)[C@H](Cc3ccccc3)NC(=O)[C@H](C)NC(=O)[C@H](C)NC(=O)[C@H](CCC(=O)O)NC(=O)[C@H](CCO)NC1=O)NC(=O)[C@H](C)NC(=O)[C@H](CC(=O)O)NC2=O (stereo partly shown) [I-498]
2.637
CC(=O)N1CCC[C@]12CC=CCCCC1(CCCC=CCCCCCC[C@@](C)(C(=O)N[C@@H](Cc3ccccc3)C(=O)N[C@@H](Cc3csc4ccccc34)C(=O)N[C@@H](Cc3c[nH]cn3)C(N)=O)NC(=O)[C@H]([C@@H](C)O)NC(=O)[C@H](Cc3ccccc3)NC(=O)[C@H](C)NC(=O)[C@H](C)NC(=O)[C@H](CCC(=O)O)NC(=O)[C@H](CC(=O)O)NC1=O)NC(=O)[C@H](CC(C)C)NC(=O)[C@H](CC(=O)O)NC2=O (stereo partly shown) [I-618]
2.617
CC[C@H](C)[C@H](NC(=O)[C@H](CC(=O)O)NC(=O)[C@H](C)NC(C)=O)C(=O)N[C@]1(C)CCN(C)C(=O)OCC=CCCCCC[C@@](C)(C(=O)N[C@@H](Cc2ccccc2)C(=O)N[C@@H](Cc2c[nH]c3ccccc23)C(=O)N[C@@H](Cc2c[nH]cn2)C(N)=O)NC(=O)[C@H](CCC(N)=O)NC(=O)[C@H](Cc2ccccc2)NC(=O)[C@H](C)NC(=O)[C@H](C)NC(=O)[C@H](CCC(=O)O)NC(=O)[C@H](CC(=O)O)NC1=O [I-67]
1.24

Prompt: Please look up its CHI Log D: CC(=O)N1CCC[C@]12CC=CCCCC1(CCCC=CCCCCCC[C@@](C)(C(=O)N[C@@H](Cc3ccccn3)C(=O)N[C@@H](Cc3csc4ccccc34)C(=O)N[C@@H](CCC(N)=O)C(N)=O)NC(=O)[C@H](C(C)C)NC(=O)[C@H](Cc3ccccc3)NC(=O)[C@H](C)NC(=O)[C@H](C)NC(=O)[C@H](CCC(=O)O)NC(=O)[C@H](CC(=O)O)NC1=O)NC(=O)[C@H](C)NC(=O)[C@H](CC(=O)O)NC2=O (stereo partly shown) [I-384]
Response: 1.837

Prompt: Please look up its CHI Log D: CCN(CC(=O)O)C[C@@H]1NC(=O)[C@H](CC(=O)O)NC(=O)C2(CCCC=CCCCOC(=O)N3CC[C@@](C(=O)N[C@@H](Cc4ccsc4)C(=O)N[C@@H](Cc4csc5ccccc45)C(=O)N[C@@H](CCC(N)=O)C(N)=O)(C3)NC(=O)[C@H](CC(N)=O)NC(=O)[C@H](Cc3ccccc3)NC(=O)[C@H](C)NC(=O)[C@H](C)NC1=O)CCCC=CC[C@]1(CCCN1C(C)=O)C(=O)N[C@@H](CC(=O)O)C(=O)N[C@@H](CC(C)(C)C)C(=O)N2 (stereo partly shown) [I-964]
Response: 1.802

Prompt: Please look up its CHI Log D: CC(=O)N1CCC[C@]12CC=CCCCC1(CCCC=CCCCCCC[C@@](C)(C(=O)N[C@@H](Cc3ccccc3)C(=O)N[C@@H](Cc3csc4ccccc34)C(=O)N[C@@H](CCC(N)=O)C(N)=O)NC(=O)[C@H](CCC(N)=O)NC(=O)[C@H](Cc3ccccc3)NC(=O)[C@H](C)NC(=O)[C@H](C)NC(=O)[C@H](CCC(=O)O)NC(=O)[C@H](CC(=O)O)NC1=O)NC(=O)[C@H](C)NC(=O)[C@H](Cc1nn[nH]n1)NC2=O (stereo partly shown) [I-417]
Response: 2.085

Prompt: Please look up its CHI Log D: CC(=O)N1CCC[C@]12CC=CCCCC1(CCCC=CCCCCCC[C@@](C)(C(=O)N[C@@H](Cc3cccc(C(F)(F)F)c3)C(=O)N[C@@H](Cc3c[nH]c4ccccc34)C(=O)N[C@@H](CCC(N)=O)C(N)=O)NC(=O)[C@H](C(C)C)NC(=O)[C@H](Cc3ccccc3)NC(=O)[C@H](C)NC(=O)[C@H](C)NC(=O)[C@H](CC(=O)O)NC(=O)[C@H](CC(=O)O)NC1=O)NC(=O)[C@H](C)NC(=O)[C@H](CC(=O)O)NC2=O (stereo partly shown) [I-249]
Response: 2.263

---

experiment: Solubility in PBS; format: physicochemical
experimentalReadout: Solubility (µM)
Please reply with the bare figure in µM and do not write the unit itself.

CC(=O)N1CCC[C@]12CC=CCCCC1(CCCC=CCCCCCC[C@@](C)(C(=O)N[C@@H](Cc3ccccc3)C(=O)N[C@@H](Cc3csc4ccccc34)C(=O)N[C@@H](CCC(N)=O)C(N)=O)NC(=O)[C@H](CC(N)=O)NC(=O)[C@H](Cc3cccs3)NC(=O)[C@H](C)NC(=O)[C@H](C)NC(=O)[C@H](CCC(=O)O)NC(=O)[C@H](CC(=O)O)NC1=O)NC(=O)[C@H](C)NC(=O)[C@H](CC(=O)O)NC2=O (some centres unmarked) [I-447]
50

Then this compound:
Prompt: Please look up its Solubility: CC(=O)N1CCC[C@]12CC=CCCCC1(CCCC=CCCCCCC[C@@](C)(C(=O)N[C@@H](Cc3ccccc3)C(=O)N[C@@H](Cc3csc4ccccc34)C(=O)N[C@@H](C(N)=O)[C@H](C)O)NC(=O)[C@H](CC(N)=O)NC(=O)[C@H](Cc3ccccc3)NC(=O)[C@H](C)NC(=O)[C@H](C)NC(=O)[C@H](CCC(=O)O)NC(=O)[C@H](CC(=O)O)NC1=O)NC(=O)[C@H](CC(C)C)NC(=O)[C@H](CC(=O)O)NC2=O (some centres unmarked) [I-755]
Response: 47

---

Test: Solubility in PBS
Assay type: physicochemical
Procedure: After ultracentrifugation of the PBS solution, the supernatant was analyzed by HPLC and compared to an HPLC injection 50 μM peptide DMSO solution. Solubility was determined by: [(Area of PBS peak)/(Area of DMSO peak)]*50 uM.
# Solubility values compiled below
Please reply with the bare figure in µM and do not write the unit itself.

Record excerpt, results attached:
CC[C@H](C)[C@@H]1NC(=O)[C@H](CC(=O)O)NC(=O)[C@]2(CC=CCCCC3(CCCC=CCCCCCC[C@@](C)(C(=O)N[C@@H](Cc4ccccc4)C(=O)N[C@@H](Cc4csc5ccccc45)C(=O)N[C@@H](CCC(N)=O)C(N)=O)NC(=O)[C@H](CCC(N)=O)NC(=O)[C@H](Cc4ccccc4)NC(=O)[C@H](C)NC(=O)[C@H](C)NC(=O)[C@H](CCCNC(N)=O)NC(=O)[C@H](CC(=O)O)NC3=O)NC1=O)CCCN2C(C)=O (stereo partly drawn) [I-604]
10
C[C@@H]1NC(=O)[C@H](C)NC(=O)[C@H](CC(=O)O)NC(=O)[C@H](CC(=O)O)NC(=O)C2(CCCC=CCCCCCC[C@@](C)(C(=O)N[C@@H](Cc3ccsc3)C(=O)N[C@@H](Cc3csc4ccccc34)C(=O)N[C@@H](CCC(N)=O)C(N)=O)NC(=O)[C@H](CC(N)=O)NC(=O)[C@H](Cc3ccccc3)NC1=O)CCCC=CC[C@]1(CCCN1C(=O)CN=[N+]=[N-])C(=O)N[C@@H](CC(=O)O)C(=O)N[C@@H](CC(C)(C)C)C(=O)N2 (stereo partly drawn) [I-1052]
33

Then this molecule:
Prompt: Please look up its Solubility: CC[C@H](C)[C@@H]1NC(=O)[C@H](CC(=O)O)NC(=O)[C@]2(CC=CCCCC3(CCCC=CCCCCCC[C@@](C)(C(=O)N[C@@H](Cc4ccccc4)C(=O)N[C@@H](Cc4csc5ccccc45)C(=O)N[C@@H](CCC(N)=O)C(N)=O)NC(=O)[C@H](CCC(N)=O)NC(=O)[C@H](Cc4ccccc4)NC(=O)[C@H](C)NC(=O)[C@H](CO)NC(=O)[C@H](CCC(=O)O)NC(=O)[C@H](CC(=O)O)NC3=O)NC1=O)CCCN2C(C)=O (stereo partly drawn) [I-651]
Response: 48
